Give growth inhibition for every item shown.
Experiment: NCI Yeast Anticancer Drug Screen. Data for the mec2-1 strain (AID 157)
Details: S. cerevisiae mec2-1 strain, at 50.0 µM, active compounds read high
About 79,000 compounds went through this panel and 15% of them were active in at least one assay; those are over-represented in the sample as a whole.
Answers are plain numbers, in %.

// known answers, use as guide
O=S1(=O)C2C=CC1CCCC2    -12.7
CC(C)/C(Cl)=N\OC(NC(=O)P(=O)(c1ccccc1)c1ccccc1)(C(F)(F)F)C(F)(F)F    52.2
O=C1CN(/N=C/c2ccc(-c3ccc(Cl)c(Cl)c3)o2)C(=O)N1    14.4
O=C1OCc2c[n+]([O-])ccc21    -9.2
CCCNC(=O)N(CCC)S(=O)(=O)c1ccc(Cl)cc1    8.45

# return growth inhibition for each item in the list
1. CCC(=O)/C=C/c1ccccc1
2. N#CC(NC12CC3CC(CC(C3)C1)C2)c1ccccc1C(F)(F)F (stereo not drawn)
3. c1ccc(-c2ccc3ncccc3c2)cc1
4. CCCCS/C=C\C(=O)OCC

**Result**
1: -14.2; 2: 7.3; 3: 3.5; 4: -22.8

# per-item lookup of growth inhibition; items listed below
1. O=C1Oc2cc3c(c4cccc1c24)O[C@H](c1ccccc1)[C@@H](c1ccccc1)[C@@H]3c1ccc(Cl)cc1
2. COC(=O)C1CCC(=O)N1CN(C(C)=O)c1cc(OC)ccc1OC (stereo not drawn)
3. CC(CCl)NC(=O)Nc1cccc2c1CCCC2 (stereo not drawn)
4. CCOC(=O)CNC(=O)C(Cc1cnc[nH]1)NC(=O)CNC(=O)OCc1ccccc1 (stereo not drawn)
5. CCc1ccc(N=Nc2ccc(Br)cc2)cc1
6. CCCCCCC(O)CCCCCCCCCCCO (stereo not drawn)

**Result**
11.2
-0.05
0.3
-2.15
-18
-15.4

Quick one: give me growth inhibition for each item below, same order please.
1. C=C1[C@H](OCC(C)C)[C@@H](OC(=O)C(C)CC)[C@@H](O)C(C)(C)/C=C/[C@H](C)C(=O)[C@@]2(O)C[C@H](C)[C@H](O)[C@@H]2[C@H]1OC(=O)C(C)CC (stereo partly drawn)
2. Cc1cccc2c1c1ccc3c(c1n2C)C(=O)C=CC3=O
3. CC(=O)NC(CCCCNC(=O)OC(C)(C)C)C(=O)O (stereo not drawn)
4. O=C1C=C(Nc2cc(Cl)ccc2Cl)c2ccccc2C1=O

**Result**
[46.6, -12.4, -42.2, 4.25]

Batch of 7 compounds: report growth inhibition for each.
1. CN(C)CCC1(C#N)CCCCC1
2. CCCCCCCC/C=C/CCCCCCCC(=O)OCC(C)(C)N1C(=O)CCC1=O
3. CC(=O)OC1CCC2(C)C(=CCC3C2CCC2(C)C3CCC23SCCS3)C1 (stereo not drawn)
4. CCCCCCCC#CC1(CCCC)Sc2ccccc2N1C (stereo not drawn)
5. COc1ccc(/C(Nc2ccccc2)=C(\CCl)c2ccccc2)cc1OC
6. O=C(COc1cc(Cl)c(Cl)cc1Cl)Nc1ccc(N=Nc2ccccc2)cc1
7. COc1cc(C=Nc2ccc3c(c2)OCO3)ccc1OC(=O)c1ccccc1

**Result**
1. 23.3
2. -20.4
3. -3
4. 6.15
5. 7.75
6. 3.55
7. 7.6

List the reported growth inhibition of each compound below.
1. CCCCN=C(OC1C=CCCC1)SC (stereo not drawn)
2. O=[N+]([O-])c1ccc(S(=O)(=O)N(CCCBr)c2ccccc2)cc1

**Result**
1. -25.6
2. 42.6

Please state, for each entry, its recorded growth inhibition.
1. S=c1[nH]c(=S)c2[nH]cnc2[nH]1
2. O=C(Cc1ccccc1)NC(CSCc1ccccc1)C(=O)O (stereo not drawn)
3. CC12CCC(C(Br)C1=O)C2(C)CBr (stereo not drawn)

**Result**
1: -5.45; 2: 19.2; 3: 5.75

Kindly give each listed record's growth inhibition.
1. CCc1ccc(N=Nc2c(F)c(F)c(NC(C)=O)c(F)c2F)cc1
2. O=C1CSc2nc3ccc(Br)cc3c(=O)n21
3. CCCCCOC(=O)CC(CC(=O)OCCCCC)C(=O)OCCCCC
4. CCCCCCCCCCCCCCCCCCCCc1ccccc1
5. COC(=O)C1c2ccc(C)cc2-c2cc(C)ccc21
6. COc1cc(C)c(/C=C/C(=O)N2C(=O)OC[C@@H]2c2ccccc2)c(C)c1

**Result**
[11.3, 9.1, 5.15, 10.3, -36.9, -8.75]

Give one value of growth inhibition per listed compound.
1. O=C(NC/C(Cl)=C/Cl)Nc1cccc2c1CCCC2
2. CCOC(=O)C1CC(C)CC1=O (stereo not drawn)
3. CC(C)CC(F)(C(N)=O)C(N)=O
4. O=C(Nc1cccc(F)c1)Oc1ccc(OCc2ccccc2)cc1

**Result**
-13.2
-2.6
-4.15
6.6
